Target: T1, M5-2
T1 construct: also called PD1 mutant M5-2
Assay: scFv-phage ELISA
observable: OD490

INSERT INTO results (binder, observable, assay_value) VALUES
  ('PD1-31F3 (antibody, V domains shown, scFv-phage in the screening ELISA; later whole IgG) VH: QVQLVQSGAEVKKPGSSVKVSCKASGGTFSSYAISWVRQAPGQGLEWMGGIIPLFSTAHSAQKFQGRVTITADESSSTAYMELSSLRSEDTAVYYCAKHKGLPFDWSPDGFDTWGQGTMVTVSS VL: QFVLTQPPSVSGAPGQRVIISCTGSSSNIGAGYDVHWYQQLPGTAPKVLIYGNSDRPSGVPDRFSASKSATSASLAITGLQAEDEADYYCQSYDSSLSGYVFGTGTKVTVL', 'OD490', 3.4),
  ('PD1-45D6 (antibody, V domains shown, scFv-phage in the screening ELISA; whole IgG in the other assays) VH: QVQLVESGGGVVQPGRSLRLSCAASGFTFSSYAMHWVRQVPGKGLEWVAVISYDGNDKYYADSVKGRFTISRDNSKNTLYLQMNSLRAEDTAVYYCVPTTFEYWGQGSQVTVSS VL: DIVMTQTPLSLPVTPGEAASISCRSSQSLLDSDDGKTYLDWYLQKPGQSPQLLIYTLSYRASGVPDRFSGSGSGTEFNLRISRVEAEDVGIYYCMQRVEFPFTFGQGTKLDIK', 'OD490', 3.9);

Every entry's value here was drawn from patent US20190248900A1.
